Experiment: Quantitative High-Throughput drug screen in 47 multiple myeloma cell lines against the NCATS MIPE library collection: FR4_PLB cell viability assay (AID 1918924; note: nearly all actives have a fitted effect of over 35% in size)
Conditions: FR4_PLB myeloma cells viability, CellTiter-Glo ATP, 48 h; series mostly up to 45.8 µM
Records with an inconclusive call do not appear. Active and inactive are the calls of the source. Calls come from the whole dose curve; as a rule, active = well fitted cell-killing curve with a large enough effect; inconclusive = small, poorly fitted or top-dose-only effect, or effect the other way; inactive = no such curve, though single readings can be large or run the other way.
Tick one outcome: label 1 for active, label 0 for inactive

Field: example entries. Status: answers known.
{"columns": ["SMILES_REPRESENTATION", "GROUP"],
 "data": [
  ["Nc1ccn([C@@H]2CS[C@H](CO)O2)c(=O)n1", "label 0"],
  ["COc1cccc2c(NCc3ccccc3)nc(-n3c(N)nc4ccccc43)nc12", "label 1"],
  ["Nc1nc(Nc2ccc(S(N)(=O)=O)cc2)nn1C(=O)c1c(F)cccc1F", "label 1"]
]}

Proceed to the following item.
Asked: Which result was noted for this compound in the test: CC(C)C[C@H](NC(=O)CNC(=O)c1cc(Cl)ccc1Cl)B(O)O
Given back: label 1

====

Test: qHTS of pediatric cancer cell lines to identify multiple opportunities for drug repurposing: Confirmatory screen for TC32 cells (AID 1347118);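 note: potency is the fitted concentration of half-maximal effect; cells exposed to compound for 48 h before the read; nearly all actives have a fitted effect of over 65% in size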
Details: TC32 Ewing sarcoma cells viability qHTS; series mostly up to 45.9 µM
Inconclusive results are not listed. Calls of active or inactive are those of the source. The call rests on the fitted dose curve; in most records, active means well fitted cell-killing curve with a large enough effect; inconclusive means small, poorly fitted or top-dose-only effect; inactive means no such curve, though single readings can be large or run the other way.
ENDPOINT_LABEL: Potency

Below: 6 compounds and their reported Potency.
{"columns": ["SMILES_REPRESENTATION", "OBSERVED_RESULT"],
 "data": [
  ["Cc1cc(Nc2cc(NC(=O)c3c(Cl)cccc3Cl)ccn2)nc(N)n1", "0.827 µM (active)"],
  ["CC1(C)OC2=C(C(=O)c3ccccc3C2=O)[C@H](NCc2ccccc2)[C@H]1O", "4.14 µM (active)"],
  ["COc1cccc2nc(-c3cccs3)nc(NN3C(=O)C=C(C)C3=O)c12", "0.737 µM (active)"],
  ["NCC(=O)Nc1ccc(-n2nc(C(F)(F)F)cc2-c2ccc3c(ccc4ccccc43)c2)cc1", "1.47 µM (active)"],
  ["CNC(=O)c1c(F)cccc1Nc1nc(Nc2cc3c(cc2OC)CCN3C(=O)CN(C)C)nc2[nH]ccc12", "0.522 µM (active)"],
  ["CC(C)(C)c1cc(NC(=O)Nc2ccc(-c3cn4c(n3)sc3cc(OCCN5CCOCC5)ccc34)cc2)no1", "3.29 µM (active)"]
]}

Could I get Potency for every one of these entries?
1. COC(=O)c1ccc2c(C(=Nc3ccc(N(C)C(=O)CN4CCN(C)CC4)cc3)c3ccccc3)c(O)[nH]c2c1
2. COC(=O)Nc1ccc(-c2nc(N3CCOCC3)c3cnn(C4CCN(Cc5cccnc5)CC4)c3n2)cc1
3. O=C(Nc1cc(C(F)(F)F)cc(C(F)(F)F)c1)c1cc(Cl)ccc1O
4. CCn1cc(-c2ccnc3[nH]c(-c4cccc(CN(C)C)c4)cc23)c(-c2ccc(NC(=O)N(C)C)cc2)n1
5. CCC1=C[C@@H]2CN(C1)Cc1c([nH]c3ccccc13)[C@@](C(=O)OC)(c1cc3c(cc1OC)N(C)[C@@H]1[C@@](O)(C(=O)OC)[C@H](OC(C)=O)[C@]4(CC)C=CCN5CC[C@]31[C@@H]54)C2
6. Cc1nc(N)ncc1-c1nc(N2CCOCC2)c2sc(C(C)(C)O)cc2n1

Given back:
["18.5 µM (active)", "1.31 µM (active)", "2.93 µM (active)", "0.0465 µM (active)", "6.57 µM (active)", "2.33 µM (active)"]

Working through the 2 compounds below one at a time, give Potency for each.
1. CN1CCN(Cc2ccc(NC(=O)Nc3ccc(Oc4cc(NC(=O)C5CC5)ncn4)cc3)cc2C(F)(F)F)CC1
2. C=CC(=O)Nc1cc2c(Nc3ccc(F)c(Cl)c3)ncnc2cc1C#CC(C)(C)N1CCN(C)CC1

Given back:
1. 0.165 µM (active)
2. 3.02 µM (active)
